FYI, the data here is from patent US20200207859A1.

Quick list: Cell Killing Activity Span per entry.
Test system: RPMI-8226 (MM)
Assay: Cell killing assay (cell proliferation, Cell Titer-Glo)
Format: cell-based
Conditions: 72 hrs

MOLECULE	Cell Killing Activity Span (%)
Conjugate F: anti-CD74 IgG containing residue 30 conjugated to a PEG4-MMAE precursor (conjugate) VH: QVQLVESGGGVVQPGRSLRLSCAASGFNFSDYGMHWVRQAPGKGLEWVAVIWYDGSISYYADSVKGRFTISRDNSKNTLYLQMNSLRAEDTAVYYCARGGTVEHGAVYGTDVWGQGTTVTVSS VL: DIQMTQSPSSVSASVGDRVTITCRASQGIGSWLAWYQQKPGKAPKLLIYAADRLQSGVPSRFSGSGSGTDFTLTISSLQPEDFATYYCQQYHTYPLTFGGGTKVEIK	31
Conjugate C: anti-CD74 IgG containing residue 30 conjugated to a val-cit-PAB-hemiasterlin precursor (conjugate, non-natural residues) VH: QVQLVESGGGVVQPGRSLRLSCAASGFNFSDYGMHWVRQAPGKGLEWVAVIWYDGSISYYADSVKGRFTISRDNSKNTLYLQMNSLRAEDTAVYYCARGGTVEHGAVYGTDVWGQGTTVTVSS VL: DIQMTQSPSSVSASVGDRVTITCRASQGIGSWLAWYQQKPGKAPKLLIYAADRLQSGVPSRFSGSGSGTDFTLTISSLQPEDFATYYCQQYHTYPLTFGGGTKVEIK	43
